Molecular target: NGF (nerve growth factor) (Homo sapiens, UniProt P01138 P01138:122-241)
Sequence (P01138 122-241, one chain of several): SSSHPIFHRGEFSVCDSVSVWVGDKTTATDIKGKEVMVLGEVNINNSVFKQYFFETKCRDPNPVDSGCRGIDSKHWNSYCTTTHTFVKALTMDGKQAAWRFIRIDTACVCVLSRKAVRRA
Assay: cell_activity; neurite; TF-1 0.093
Conditions: tags: R&D Systems; chain copies: 2
property-name: IC50 (pM)
One number for each entry, in pM.

Query block: # lookup: IC50 of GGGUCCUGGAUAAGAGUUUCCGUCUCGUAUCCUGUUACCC (ssRNA, as 82(1) except dC5) [SEQ ID NO: 82(27)]
Result block: 250
